- assayRemarks: chemical genetic growth profiling, strain panel (AID 1159580);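 note: tested at 20 µM; growth read once vehicle control cultures reached saturation at 30 °C; 1 = growth at the plate median or of vehicle wells; lower values mean less growth of the strain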
- setupConditions: S. cerevisiae deletion strains, growth OD, locus YNL298W, strain CLA4, stronger effect = lower value
Hit rate of the full screen: of about 5,500 compounds, about 2,000 (36%) were called active. About 18% were inconclusive and are not listed. This is one part of the list.
measurementKind: normalized growth
// no unit, no text: just the number

Reference set, count: 8
INSERT INTO measurements (compound, reported) VALUES
  ('CC[C@]12CCCN3CCc4c(n(c5ccccc45)[C@](O)(C(=O)OC)C1)[C@@H]32', 0.987),
  ('Nc1nccs1', 0.999),
  ('CN1CCc2cccc3c2C1Cc1ccc(O)c(O)c1-3 (configuration not stated)', 0.992),
  ('Nc1ccc(S(=O)(=O)Nc2nccs2)cc1', 1),
  ('COc1cc(/C=C/C(=O)O)ccc1O', 0.981),
  ('COP(=S)(OC)Oc1ccc(SC)c(C)c1', 0.981),
  ('CCOC(=O)C1=C[C@]2(CC)CCCN3CCc4c(n1c1ccccc41)[C@@H]32', 0.98),
  ('CC(=O)O[C@H]1C[C@@H](OC(C)=O)C(C)(C)C2C[C@@H](OC(C)=O)[C@]3(C)C(CC[C@@]4(C)[C@H](c5ccoc5)C(=O)[C@H]5O[C@]543)[C@]21C (some centres not stated)', 1.01);

Any idea what its normalized growth is? The compound is `CCCSP(=O)(OCC)SCCC`
0.977

Bench note: what normalized growth did `CCOC(=O)c1ccc(N)cc1` show?
1.01

Bench note: what normalized growth did `COc1cc(/C=C/C(=O)O)cc(OC)c1OC` show?
1.03

Suppose we examine the compound `COc1ccc(/C=C/C(=O)O)cc1OC` ; what normalized growth value has been reported?
1.05

* * *

- assayRemarks: chemical genetic growth profiling, strain panel (AID 1159580);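 note: tested at 20 µM; growth read once vehicle control cultures reached saturation at 30 °C; 1 = growth at the plate median or of vehicle wells; lower values mean less growth of the strain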
- setupConditions: S. cerevisiae deletion strains, growth OD, locus YER155C, strain BEM2 (second series), stronger effect = lower value
The campaign covered roughly 5,500 compounds. About 2,000 (36%) were called active. About 18% were inconclusive and are not listed. The list shows a part of the results.
Decision: normalized growth beneath 0.9 gives y; normalized growth meeting or exceeding 0.9 gives n.

Illustrative cases are given below, each with its answer.
INSERT INTO assay_data (compound, cat) VALUES
  ('CCn1cc(C(=O)O)c(=O)c2cnc(N3CCNCC3)nc21', 'n'),
  ('CC[C@]12CCCN3CCc4c(n(c5ccccc45)C(=O)C1)[C@@H]32', 'n'),
  ('CCCc1cc(OC)c2c(c1)OCO2', 'n'),
  ('CC[C@@H]1[C@@H](O)N2C3C[C@H]1C1C(O)[C@]4(C[C@@H]12)c1ccccc1N(C)[C@@H]34 (stereo partly specified)', 'n'),
  ('CCn1cc(C(=O)O)c(=O)c2cc3c(cc21)OCO3', 'n');

Does `CCn1cc(C(=O)O)c(=O)c2ccc(C)nc21` have normalized growth strictly under 0.9?
n

Is normalized growth strictly under 0.9 for the entry `COc1ccc(C=CC(=O)c2ccc(O)cc2O)cc1OC` ?
y

* * *

Each entry below lists one item and its recorded normalized growth value.
- assayRemarks: chemical genetic growth profiling, strain panel (AID 1159580);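 note: tested at 20 µM; growth read once vehicle control cultures reached saturation at 30 °C; 1 = growth at the plate median or of vehicle wells; lower values mean less growth of the strain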
- setupConditions: S. cerevisiae deletion strains, growth OD, locus YJL168C, strain set2, stronger effect = lower value
Hit rate of the full screen: of about 5,500 compounds, about 2,000 (36%) were called active. About 18% were inconclusive and are not listed. This is one part of the list.
Give only the figure.

INSERT INTO measurements (molecule, measurementkind, reported) VALUES
  ('COc1ccc(-c2cc(C(F)F)nn2-c2ccc(S(N)(=O)=O)cc2)cc1F', 'normalized growth', 1.02),
  ('OCC(S)CS (stereo not drawn)', 'normalized growth', 0.984),
  ('O=C(O)CNCP(=O)(O)O', 'normalized growth', 1.01),
  ('CC[C@]12CCCN3CCc4c(n(c5ccccc45)C(=O)C1)[C@@H]32', 'normalized growth', 0.992),
  ('c1ccc2[nH]c(-c3cscn3)nc2c1', 'normalized growth', 1.01);

Any idea what normalized growth was measured for `O=c1cccc2n1C[C@H]1CNCC2C1` ?
0.984

For the molecule shown here, CC[C@@H]1[C@@H](O)N2C3C[C@H]1C1C(O)[C@]4(C[C@@H]12)c1ccccc1N(C)[C@@H]34 (stereo partly drawn) , give the reported normalized growth.
0.97

Query (molecule): `CC12CCC(CC1)C(C)(C)O2` ; field requested: normalized growth
1.04

What value of measured normalized growth is listed for `C[C@](N)(Cc1ccc(O)c(O)c1)C(=O)O` ?
0.995

What value of measured normalized growth is listed for `NCCCCN=C(N)N` ?
0.981

Returns the measured normalized growth for the input molecule. Input: `CCOP(=S)(OCC)SCSCC`
1.01

For `COS(C)(=O)=O` , what is its reported normalized growth?
1.02

What value of normalized growth has been recorded for this entry: `C[C@@H]1C[C@@H]([C@H](O)CC2CC(=O)NC(=O)C2)C(=O)[C@@H](C)C1`
0.0578
